test system: Plasmodium falciparum; assay: NOVARTIS: Inhibition of Plasmodium falciparum 3D7 (drug-susceptible) proliferation in erythrocyte-based infection assay; type: functional, organism-based; details: Plasmodium falciparum, 3D7
pEC50: −log10 of the molar value.
Below, each entry is listed with its recorded pEC50.

# compound, relation symbol, pEC50
measured = [
    ("CCCCCc1ccc(-c2ccc(/C(C=[N+](C)C)=C\\N(C)C)cc2)cc1", "=", 6.22),
    ("O=C(CSc1nc2ccccc2c(=O)n1CCCN1CCOCC1)Nc1cccc(S(=O)(=O)N2CCCCCC2)c1", "=", 6.33),
    ("O=C1C(=O)N(Cc2cccc3ccccc23)c2ccc(Br)cc21", "<", 4.90),
    ("C[C@H](Nc1cncc(-c2cccc(OC(F)(F)F)c2)n1)c1ccccc1", "<", 6.58),
    ("CC1(C)Cc2c(oc3ncn(CCn4cnc5oc6c(c5c4=N)CC(C)(C)SC6)c(=N)c23)CS1", "<", 4.90),
    ("CCCNC(=O)c1ccc(OC2CCN(CC(c3ccccc3)c3ccccc3)CC2)c(OC)c1", "=", 6.21),
    ("CCN(CC)CCNC(=O)c1cc(-c2ccc(Cl)cc2)cc(-n2cnnn2)c1", "=", 6.19),
    ("Cc1cc(C)nc(NNc2c([N+](=O)[O-])cccc2[N+](=O)[O-])n1", "=", 5.74),
    ("CCCCCCCc1ccc(-c2nnc(-c3ccc([N+](=O)[O-])cc3)o2)cc1", "<", 5.90),
    ("O=C1Nc2ccccc2C1=NN=Cc1ccc(-c2ccccc2[N+](=O)[O-])o1", "<", 4.90),
    ("CCn1c(SCCCCNC(=O)c2cc([N+](=O)[O-])cc([N+](=O)[O-])c2)nc(-c2ccccc2)c1-c1ccccc1", "=", 6.14),
    ("CCCCCCCCCCCC(=O)N(C)CCCNc1ccnc2cc(Cl)ccc12", "=", 6.65),
    ("Cc1nnc2sc(SCc3ccc([N+](=O)[O-])cc3)nn2c1=O", "<", 6.32),
    ("CCOC(=O)C1=C(C)NC2=C(C(=O)CC(C)(C)C2)C1c1ccc(Cl)cc1 (stereo not given)", "=", 6.94),
    ("N#C/C(=C\\C=C\\c1ccc([N+](=O)[O-])o1)c1nc2ccccc2[nH]1", "=", 5.98),
    ("CCC(c1nc2ccccc2c(=O)n1CC)N1CCN(C(=O)Nc2ccccc2C(F)(F)F)CC1 (stereo not given)", "=", 5.88),
    ("O=C(NCCc1ccc(Cl)cc1)C1CCCN(c2nnc(N3CCCC3=O)s2)C1 (stereo not given)", "<", 4.90),
    ("CCCCCCN(C(=O)c1ccc2ccccc2c1)C(CC)c1nc2ccccc2c(=O)n1-c1cccc(Cl)c1 (stereo not given)", "<", 5.90),
    ("Cc1n(N)c2ccccc2[n+]1CC(=O)c1ccccc1", "=", 5.54),
    ("Cc1c(Br)c([N+](=O)[O-])nn1CC(=O)NC(C)c1ccccc1 (stereo not given)", "<", 5.90),
    ("CCOc1ccc2[nH]c(=O)c(CN(Cc3ccccc3OC)C(C)=O)cc2c1", "<", 5.76),
    ("COC(=O)C1=C(C)NC2=C(C(=O)CC(c3ccc(OC)c(OC)c3)C2)C1c1ccccc1Br (stereo not given)", "=", 6.87),
    ("COc1ccc(-c2noc(CC(=O)Nc3ccccc3C#N)n2)cc1", "=", 5.22),
    ("CC(C)C1N=C2c3ccccc3N=C(SCC(=O)Nc3cc(C(F)(F)F)ccc3Cl)N2C1=O (stereo not given)", "=", 5.23),
    ("COc1ccccc1Cc1nc2ccccc2nc1SCC(=O)Nc1cccc(C(F)(F)F)c1", "<", 5.26),
    ("COc1ccc(-c2c[n+](Cc3ccccc3Cl)c3n2CCC3)cc1", "=", 6.24),
    ("CNc1nc(Cl)nc(Nc2ccccc2)n1", "<", 6.32),
    ("CN(C)c1ccc(C=CC=Cc2cccc[n+]2C)cc1.[O-][Cl+3]([O-])([O-])[O-]", "=", 6.55),
    ("COC(=O)C1=CN(Cc2ccc(OC)cc2)C=C(C(=O)OC)C1c1cccc([N+](=O)[O-])c1", "=", 5.67),
    ("CCCCSCC(O)CN1CCCCC1 (stereo not given)", "=", 5.28),
]
